Assign TGI to each entry below.
- System: OVCAR-4 ovarian
- Assay Protocol: NCI tumour cell line growth inhibition, 48 h

Consider the compound O=C1C2c3[nH]c4ccccc4c3C3CCSCC3C2C(=O)N1c1ccccc1 (centres undefined) and give its recorded TGI.
> 100 µM

Consider the compound CCOc1cc(NC(C)=O)ccc1C(=O)NN1C(=O)C(Cl)C1c1ccc(O)c(OC)c1 (centres undefined) and give its recorded TGI.
31.6 µM

Consider the compound COc1ccc(/C=C(\C#N)n2nnc3cc(Cl)ccc32)cc1 and give its recorded TGI.
> 100 µM

Consider the compound CCCCC1=C(C(=O)N2CCOCC2)C2(OCCO2)C1Cl (centres undefined) and give its recorded TGI.
> 100 µM

Consider the compound Clc1ccc(Nc2ccnc(NCCNc3ccnc4cc(Cl)ccc34)n2)cc1 and give its recorded TGI.
2.31 µM

Consider the compound Nc1c(O)c2c(c(O)c1Cl)C(=O)C=CC2=O and give its recorded TGI.
16.2 µM

Consider the compound O=C(/C=C/c1ccsc1)c1cccs1 and give its recorded TGI.
> 100 µM

Consider the compound CCOC(=O)C12C3CCC1C2C(=O)C3 (centres undefined) and give its recorded TGI.
> 100 µM

Consider the compound O=C1c2scc(-c3ccc(F)cc3)c2-n2cccc21 and give its recorded TGI.
> 100 µM

Consider the compound COC(=O)/C=C/COCC1C2CCC(=O)C21 (centres undefined) and give its recorded TGI.
> 100 µM

Consider the compound CCN(Cc1ccc(F)cc1F)c1ccc(CO)c(Cl)c1 and give its recorded TGI.
1.65 µM

Consider the compound CCN(CC)c1ccc2[nH]c3c(C(N)=O)cc(=O)c(=O)c=3oc2c1 and give its recorded TGI.
11.5 µM

Consider the compound Cc1c2ncccc2c(C)c2c1[nH]c1ccc(O)cc12 and give its recorded TGI.
16 µM

Consider the compound COc1cccc(N2C(=O)CSC2c2c[nH]c3ccccc23)c1 (centres undefined) and give its recorded TGI.
> 100 µM

Consider the compound O=c1[nH]nc(Cc2ccccc2)n1N=C1CCCCC1 and give its recorded TGI.
> 100 µM

Consider the compound CCOC(=O)c1sc2ncn(Cc3cccc(Cl)c3)c(=O)c2c1C and give its recorded TGI.
29.7 µM

Consider the compound CC[C@@]1(O)C(=O)OCc2c1cc1n(c2=O)Cc2c-1nc1ccccc1c2C=Nc1ccc(N[C@@H]2c3cc4c(cc3[C@@H](c3cc(OC)c(O)c(OC)c3)[C@H]3C(=O)OC[C@@H]32)OCO4)cc1 and give its recorded TGI.
> 56 µM

Consider the compound COc1ccc(OC)c2sc(N3C(=O)/C(=C/c4ccc(N(C)C)cc4)N=C3c3ccccc3)nc12 and give its recorded TGI.
> 100 µM

Consider the compound O=C(O)C(Cc1ccccc1-c1ccccc1)C(=O)O and give its recorded TGI.
> 100 µM

* * *

- Test system: CAKI-1 renal
- Assay Protocol: NCI tumour cell line growth inhibition, 48 h
Reported Endpoint: TGI

Consider the molecule COC(=O)[C@H](C)[C@H]1CC[C@@](C)([C@H]2CC3C(C)(C)[C@H]4CCC(C)=C[C@H]4C[C@@]3(C)O2)OO1 (stereo partly specified) and give its recorded TGI.
18.2 µM

Consider the molecule C[C@@H](Oc1cc(-c2cnn(C3CCNCC3)c2)cnc1N)c1c(Cl)ccc(F)c1Cl and give its recorded TGI.
> 10 µM

Consider the molecule Nc1nc(SCC(=O)O)[nH]c(=O)c1N and give its recorded TGI.
> 100 µM

Consider the molecule Cc1ccc(-n2nnc3c(NNc4ccccc4)n[nH]c(=O)c32)cc1 and give its recorded TGI.
> 100 µM

Consider the molecule O=C1CC2(CCCc3sccc32)C(=O)N1 (stereo unspecified) and give its recorded TGI.
> 100 µM

Consider the molecule CC1=C2C(=CC(C)(CO)C2O)C(=O)C(C)(O)C12CC2 (stereo unspecified) and give its recorded TGI.
0.0183 µM

Consider the molecule C=C1C(=O)OC2C1C(OC(=O)/C(C)=C/C)CC(O)(CCl)C1C(OC(C)=O)C=C(C)C21O (stereo unspecified) and give its recorded TGI.
17.7 µM

Consider the molecule COc1ccc(/C=C(\C#N)n2nnc3cc(Cl)ccc32)cc1 and give its recorded TGI.
> 100 µM

Consider the molecule Nc1c(O)c2c(c(O)c1Cl)C(=O)C=CC2=O and give its recorded TGI.
32.2 µM

Consider the molecule O=c1ccc(-c2ccc(-n3ccnc3)cc2)nn1CCO and give its recorded TGI.
> 100 µM

Consider the molecule COC1/C=C/C(C)C(C(C)C(OC)C(C)CCC(=O)C(C)C(CC(=O)O)OC)OC(=O)/C=C/C=C(\C)CC(OC)C(OC)C2=CC(=O)O[C@@H](C(C)C(OC)CC(OC)/C=C/C(C)C(O)C1)[C@H]2O (stereo partly specified) and give its recorded TGI.
> 1.07 µM

Consider the molecule N#Cc1c(Cl)cccc1Oc1ccc(S(=O)(=O)/N=C(\NO)Nc2ccc(Cl)cc2)cc1 and give its recorded TGI.
29.2 µM

Consider the molecule CCOC(=O)NC(OCCN(C)C)(C(F)(F)F)C(F)(F)F and give its recorded TGI.
> 100 µM

Consider the molecule Cc1c2[nH]c3ccc(Br)cc3c2c(C)c2[nH]ccc(=O)c12 and give its recorded TGI.
28 µM

Consider the molecule O=C(O)C(Cc1ccccc1-c1ccccc1)C(=O)O and give its recorded TGI.
> 100 µM

Consider the molecule Cc1cc(Cl)ccc1NC(=O)/C(Cc1nc2ccc(C(=O)c3ccccc3)cc2[nH]c1=O)=N/NC(=O)c1ccncc1 and give its recorded TGI.
> 100 µM
